test: NOVARTIS: Cytotoxicity against human hepatocellular carcinoma cell line (Huh7); assay type: toxicity, cell-based, Huh-7; details: Huh7 cells (hepatocellular carcinoma cell line)
assay readout: CC50

See these solved cases before continuing.
INSERT INTO assay_data (molecule, assay_readout, reported) VALUES
  ('COc1cc2c(cc1OC)C1Cc3ccc(OC)c(OC)c3CN1CC2 (stereo unspecified)', 'CC50', '> 100 µM'),
  ('CC(C)CCn1nc(C(=O)N2CCOCC2)c2c1CCN(C(=O)c1ccc(N3CCOCC3)cc1)C2', 'CC50', '> 100 µM'),
  ('COc1ccc(Nc2cc(C)nc(NCc3ccccc3)n2)cc1', 'CC50', '16.7 µM'),
  ('CCOC(=O)C1=C(C)N=c2sc(=Cc3cc(Br)ccc3O)c(=O)n2C1c1ccc(OC)c(OC)c1 (stereo unspecified)', 'CC50', '> 100 µM'),
  ('CCOC(=O)C1=CN(c2cc(C)ccc2C)C=C(C(=O)OCC)C1c1ccccc1OCC', 'CC50', '> 100 µM'),
  ('CCC(c1nc2ccccc2c(=O)n1-c1ccc(F)cc1)N(CCc1ccccc1)C(=O)COc1ccccc1 (stereo unspecified)', 'CC50', '> 10 µM');

Q: Entry Cc1ccn2c(NC(C)(C)CC(C)(C)C)c(-c3ccccc3OC(=O)CCC3CCCC3)nc2c1 has what CC50?
Result: > 10 µM

Q: Would you mind doing CCCCCc1ccc(C(=O)N(CCCC(C)Nc2cc(OC)cc3cccnc23)Cc2ccc(OC)c(OC)c2)cc1 (stereo unspecified) as well?
Result: 5.03 µM

Q: Same lookup for c1ccc2[nH]c(Sc3ncnc4sc5c(c34)CCC5)nc2c1 , please.
Result: > 100 µM

Q: Here is the next molecule: COc1cc(OC)c(NC(=O)C2c3ccccc3C(=O)N(CC(C)C)C2c2cccs2)cc1Cl (stereo unspecified)
Result: > 100 µM

Q: How about CCCOC(=O)C1=C(C)NC2=C(C(=O)CC(c3ccc(OC)cc3)C2)C1c1ccccc1F (stereo unspecified) ?
Result: > 100 µM

Q: Try the molecule Cc1ccc2[nH]c3c(NCCN4CCCCC4)ncnc3c2c1
Result: 39.7 µM

Q: Another: COc1ccc(CNCc2cc(-c3ccnc4cc(Cl)ccc34)ccc2O)c(OC)c1
Result: 59.1 µM

Q: Now this one: C#CC(C)(C)NS(=O)(=O)c1cc(-c2nnc(Nc3cccc(C)c3)c3ccccc23)ccc1C
Result: > 10 µM

Q: Same for CCCCCc1ccc(OCCCC[n+]2cccc(C)c2)c(CCCCC)c1
Result: 20.5 µM

Q: Moving on to the next molecule: CSc1nc2nc(C)c(Cc3cccc(F)c3)c(C)n2n1
Result: > 100 µM

====

Quick list: CC50 per entry.
test: NOVARTIS: Cytotoxicity against human hepatocellular carcinoma cell line (Huh7); type: toxicity, cell-based, Huh-7; details: Huh7 cells (hepatocellular carcinoma cell line)

INSERT INTO results (compound, reported) VALUES
  ('CN1CCc2c(sc3nc(SCC(=O)NCCc4ccccc4)n(-c4ccc(Cl)cc4)c(=O)c23)C1', '68.5 µM'),
  ('O=C(Nc1ccc(C2=NCCN2)cc1)c1cccc2c(C(=O)Nc3ccc(C4=NCCN4)cc3)cccc12', '> 10 µM'),
  ('CN1CCN(C(=O)c2cccc(-c3nc(-c4ccncc4)cnc3N)c2)CC1', '> 10 µM');

Q: Entry under review: CCOC(=O)C1=C(c2ccccc2)N=c2sc(=Cc3c(C)n(Cc4ccc(F)cc4)c4ccccc34)c(=O)n2C1c1cccc(OC)c1OC (centres undefined) . Reported CC50?
Result: > 100 µM

====

assay: NOVARTIS: Cytotoxicity against human hepatocellular carcinoma cell line (Huh7); format: toxicity, cell-based, Huh-7; conditions: Huh7 cells (hepatocellular carcinoma cell line)
assay readout: CC50

INSERT INTO measurements (compound, reported) VALUES
  ('O=C(COc1ccc(Cl)cc1)NCc1ccc(CNc2noc3ccccc23)cc1', '66.2 µM'),
  ('COc1ccc(OC)c(-c2ccc(O)c(CNC3CCCCCCC3)c2)c1', '> 10 µM'),
  ('C=C[C@H]1CN2CC[C@H]1C[C@@H]2[C@@H](OC(=O)C(C)C)c1ccnc2ccccc12', '> 10 µM');

Q: CC50 lookup needed for CN(C)CCNc1ccc2ncc(-c3ccsc3)n2n1 , thanks.
Result: > 10 µM

Q: Same thing, different compound: CCOC(=O)C1=C(C)N=c2sc(=Cc3cc(Br)ccc3O)c(=O)n2C1c1ccccc1 (stereo not given)
Result: > 100 µM

Q: # iterate: CCN(CC)CCNc1ccnc2ccc([N+](=O)[O-])cc12
Result: > 100 µM

Q: Follow-up item: COc1ccccc1C(=O)N1CCN(Cc2ccc3ccccc3c2)CC1
Result: > 100 µM

Q: Another: CCN(CC)CCCN(Cc1cc2ccc(OC)cc2[nH]c1=O)C(=S)NCc1ccccc1
Result: 25.9 µM

Q: Also need O=C(Cc1cccnc1)N1CCC(Oc2ccncc2)CC1 , thanks.
Result: 0.104 µM

Q: Try this compound too: COC(=O)c1cnn(-c2ccccc2)c1C=NOC(=O)c1ccccc1
Result: > 100 µM

====

This listing pairs compounds with measured pEC50.
tested on: Plasmodium falciparum; assay: NOVARTIS: Inhibition of Plasmodium falciparum 3D7 (drug-susceptible) proliferation in erythrocyte-based infection assay; type: functional, organism-based; conditions: Plasmodium falciparum, 3D7
By convention, pEC50 is the negative base-10 log of a molar concentration.

INSERT INTO results (compound, reported) VALUES
  ('CCc1cc2c(cc1-c1csc(NC(=N)N)n1)C(C)(C)CCC2(C)C', 6.13),
  ('CC1(CNCc2ccccc2O)C2CC3CC(C2)CC1C3 (stereo unspecified)', 6.84),
  ('CCC(C)NC(=O)CN(c1cc(OC)ccc1OC)S(C)(=O)=O (stereo unspecified)', 6.36),
  ('c1ccc(-c2cc(NCc3ccco3)nc(-c3ccccn3)n2)nc1', 6.74);

Q: Lookup: pEC50 / Plasmodium falciparum / Clc1ccc(-c2cn3c([n+]2-c2ccccc2)CCC3)cc1
Result: 6.59

Q: Next up: O=C(NCCCCNc1ccnc2cc(Cl)ccc12)c1ccco1
Result: 6.14

Q: Next compound: CC(=O)N(C1=C(N(C)C)C(=O)c2ccccc2C1=O)c1ccc(F)cc1
Result: 7.61

Q: What would you report for CCCOc1ccc(C=Nc2ccc(S(=O)(=O)Nc3ccccn3)cc2)cc1 ?
Result: 5.85

====

assay: NOVARTIS: Cytotoxicity against human hepatocellular carcinoma cell line (Huh7); format: toxicity, cell-based, Huh-7; settings: Huh7 cells (hepatocellular carcinoma cell line)
assay readout: CC50

Record excerpt, results attached:
INSERT INTO assay_data (compound, reported) VALUES
  ('Cc1ccn2c(NC(C)(C)CC(C)(C)C)c(-c3ccccc3OC(=O)C3CCC3)nc2c1', '> 10 µM'),
  ('C[n+]1cc(-c2ccc3cccc([N+](=O)[O-])c3n2)cc2ccccc21', '> 10 µM'),
  ('CC(C)(C)CC(C)(C)Nc1c(-c2ccccc2OC(=O)C2CCCCC2)nc2ccccn12', '> 10 µM'),
  ('COc1ccc(-c2c[n+](-c3ccccc3)c3n2CCS3)cc1', '> 10 µM'),
  ('CCOC(=O)c1ccc2c(c1)[C@@H]1C=CC[C@@H]1[C@H](c1cccc(OC)c1OC)N2', '> 100 µM');

Q: Report CC50 for COCCn1c(=S)[nH]c2cc(C(=O)NCCc3ccc(S(N)(=O)=O)cc3)ccc2c1=O please.
Result: > 10 µM

Q: Moving on to O=C(Nc1ccc(-c2nc3ccccc3[nH]2)cc1)c1ccc(Cl)c(Cl)c1
Result: > 100 µM

Q: Now consider Cc1ccc(C2Sc3ccccc3NC3=C2C(=O)c2ccccc23)cc1 (stereo not given) and answer again.
Result: 68.6 µM

Q: Next: COc1ccc(-c2c[n+](Cc3ccc(Cl)c(Cl)c3)c3n2CCC3)cc1
Result: 49.7 µM

Q: Next: O=C1C2C(C(=O)N1c1ccc(Cl)c(C(F)(F)F)c1)C1(c3ccccc3)C(=O)C2(c2ccccc2)C(c2ccccc2)=C1c1ccccc1 (stereo not given)
Result: > 100 µM

Q: What do you have for CCOC(=O)c1cnc2ccc(OC)cc2c1Nc1ccc(N2CCN(C)CC2)cc1 ?
Result: > 10 µM

Q: # repeat for CC1CCCCN1CCCN(Cc1c2ccccc2cc2ccccc12)C(=O)c1ccccc1Cl (stereo not given)
Result: > 1.74 µM

====

tested on: Plasmodium falciparum; test: NOVARTIS: Inhibition of Plasmodium falciparum 3D7 (drug-susceptible) proliferation in erythrocyte-based infection assay; assay type: functional, organism-based; conditions: Plasmodium falciparum, 3D7
assay readout: pEC50
// returns pEC50 (minus log10 of molar concentration), number only

Take a look at these entries with their results.
INSERT INTO measurements (compound, reported) VALUES
  ('O=C(NCCCN1CCCCC1)c1ccc2c(c1)sc1nc(-c3ccc(F)cc3)cn12', 6.16),
  ('COC(=O)c1ccc2c(c1)C(=O)c1ccccc1C2C1c2ccccc2C(=O)c2cc(C(=O)OC)ccc21 (stereo not given)', 6.07),
  ('COc1cc(N)c(Cl)cc1C(=O)NCC1CCN(c2nc(C)cc(C)n2)CC1', 6.46),
  ('CCCCN(C(=O)CCC(=O)Nc1cc(C)on1)C(C(=O)NC1CCCC1)c1ccc(C)o1 (stereo not given)', 7.65);

Q: Recall the recorded pEC50 for Cc1ccn2c(NC(C)(C)CC(C)(C)C)c(-c3ccccc3OC(=O)C34CC5CC(CC(C5)C3)C4)nc2c1 with Plasmodium falciparum and state it.
Result: 6.10

Q: Proceed to CCCCCN(CC(=O)Nc1cc(C(C)(C)C)nn1-c1ccc(Cl)c(Cl)c1)C(=O)c1cccc(OC)c1
Result: 6.22

Q: Next: Cc1ccc(-c2cn3c([n+]2-c2ccc(C)cc2)CCCCC3)cc1
Result: 6.00

Q: Record: CCOC(=O)c1ccc2nc(-c3ccccc3)cc(O)c2c1
Result: 6.26

Q: How about this compound: COc1ccc(C2CC(=O)C3=C(C2)NC(C)=C(C(=O)OC2CCCC2)C3c2ccccc2C)cc1OC (stereo not given)
Result: 7.48

Q: What do you get for COc1cnc(-c2ccccn2)nc1N1CCCC1 ?
Result: 6.31

Q: Can you check Cc1cc(-c2ccc(O)c(CN3CCCCCC3)c2)c2ccccc2n1 next?
Result: 5.95

Q: // repeat for CCOc1ccccc1-n1c(C(C)N(Cc2ccccc2)C(=O)Nc2cccc3ccccc23)nc2ccccc2c1=O (stereo not given) and report
Result: 6.07

Q: And what about the compound Cc1ccc(CSCc2ccc(C(=O)NC3CC3)o2)cc1 ?
Result: 6.38
